- System: Inhibin beta A chain (activin A)
- measurementNotes: INHBA (activin A) binders on microarrays, primary screen, biochemical, small-molecule microarray, 635 nm fluorescence scan (AID 1107);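 also: mouse activin A protein probed at 4.33 µg/mL on printed slides; score merges bound-protein fluorescence near 667 nm with spot signal-to-noise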
- conditionDescription: small-molecule microarray binding, higher = more signal
measurementName: composite z-score
Give bare numbers.

structureSmiles | system | measurementName | experimentalResult
COC(=O)[C@H]1N=C(c2ccc(OCCCO)cc2)O[C@H]1c1ccccc1N=[N+]=[N-] | Inhibin beta A chain (activin A) | composite z-score | 1.21

Go through the items and report each one's composite z-score.
1. Cc1ccc(S[C@]2(C(=O)NCc3ccccc3)CC(=O)N(Cc3ccccc3C(F)(F)F)[C@@H]2c2ccc(CO)cc2I)cc1
2. COc1ccc(CCNC(=O)[C@@H]2c3ccccc3C(=O)N(Cc3cc(F)cc(C(F)(F)F)c3)[C@H]2c2ccc(CO)cc2)cc1

Resp:
1: 1.07; 2: 1.08

----------
- system: NADPH oxidase 4 (Homo sapiens) (UniProt Q9NPH5)
- Sequence (Q9NPH5 whole entry, looked up): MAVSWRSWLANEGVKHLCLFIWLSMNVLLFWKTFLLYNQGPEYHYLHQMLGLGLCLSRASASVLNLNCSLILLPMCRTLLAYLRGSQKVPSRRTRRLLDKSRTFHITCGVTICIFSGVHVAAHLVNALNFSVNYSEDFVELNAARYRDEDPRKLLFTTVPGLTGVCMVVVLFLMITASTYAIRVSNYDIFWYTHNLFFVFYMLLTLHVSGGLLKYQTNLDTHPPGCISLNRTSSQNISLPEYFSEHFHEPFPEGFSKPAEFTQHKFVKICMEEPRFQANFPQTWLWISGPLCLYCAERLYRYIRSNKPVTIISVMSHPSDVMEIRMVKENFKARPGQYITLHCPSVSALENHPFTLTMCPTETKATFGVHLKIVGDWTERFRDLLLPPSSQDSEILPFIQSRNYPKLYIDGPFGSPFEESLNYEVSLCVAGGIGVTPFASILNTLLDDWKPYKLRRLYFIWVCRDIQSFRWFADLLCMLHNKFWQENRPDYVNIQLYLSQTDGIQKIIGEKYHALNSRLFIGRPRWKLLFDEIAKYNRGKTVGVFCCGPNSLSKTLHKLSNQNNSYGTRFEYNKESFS
- measurementNotes: NOX4-dependent H2O2 signal modulators, primary screen, NOX inhibitor project, cell-based, HEK293-NOX4, tetracycline-induced, Amplex Red fluorescence (AID 1160)
- conditionDescription: 45 min, higher = more signal, called active from +8 up or from −8 down
measurementName: z-score
Give bare numbers.

Observe how each entry below is paired with its result.
compound | z-score
C=CCNC(=O)[C@H]1[C@@H]2C(=O)O[C@@H](c3ccccc3)[C@@H](c3ccccc3)N2[C@@H](c2ccc(O)cc2)[C@]12C(=O)N(C(=O)OCCOC)c1ccc(C#Cc3ccc(OC)cc3)cc12 | 0.725
COC(=O)C(CC#Cc1ccc2c(c1)[C@]1(C(=O)N2)[C@H](C(=O)N2CCN(c3ncccn3)CC2)[C@H]2C(=O)O[C@H](c3ccccc3)[C@H](c3ccccc3)N2[C@@H]1c1ccc(O)cc1)C(=O)OC | -0.566
COc1cc(Cc2cc3c(c(-c4ccccc4)n2)[Si](C(C)C)(C(C)C)OC3)cc(OC)c1OC | 0.424
CC(C)Cc1ccc(CN2CC[C@@H](NC(=O)c3ccccc3)C2)cc1 | -0.413
COC(=O)C(CC#Cc1ccc2c(c1)[C@]1(C(=O)N2)[C@H](C(=O)NC[C@H](O)c2ccccc2)[C@H]2C(=O)O[C@H](c3ccccc3)[C@H](c3ccccc3)N2[C@@H]1c1ccc(O)cc1)C(=O)OC | 0.691

Dear reader, for each entry below, please note its z-score.
1. CCCCC=C[C@@H](NC(=O)C(C)(C)C)c1ccccc1
2. O=C1OCC=C[C@H]2OC34C=CCN(Cn5nnc6ccccc65)C(=O)[C@H]3N(CCO)C(=O)[C@@H]4[C@@H]12 (some centres not stated)
3. O=C1NC(=O)C2C1C=CC(C(O)C(O)CO)N2Nc1ccccn1 (configuration not stated)
4. C=C[C@H](C)[C@@H](OC(=O)Nc1ccc(SC)cc1)c1ccc(OCCO)cc1
5. COCCOC(=O)N1C(=O)[C@@]2(c3cc(C#CC4(O)CCCCCC4)ccc31)[C@H](C(N)=O)[C@H]1C(=O)O[C@H](c3ccccc3)[C@H](c3ccccc3)N1[C@@H]2c1ccc(OCCO)cc1
6. CC(C)c1ccc(NN2C(C(O)C(C)c3ccccc3)C=CC3C(=O)N(c4ccccc4)C(=O)C32)cc1 (configuration not stated)
7. COC(=O)[C@@]1(Cc2ccccc2)[C@H]2c3cc(C(=O)N(C)C)n(Cc4ccc(Cl)c(C(F)(F)F)c4)c3C[C@H]2CN1C(=O)c1ccccc1

Resp:
[-2.16, 0.99, -0.921, -1.23, 0.984, -2.63, -0.895]

----------
- measurementNotes: binders of probe aFST on microarray, primary screen, stem cell growth factor project, biochemical, small-molecule microarray, fluorescence 635/667 (AID 1086);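 also: score merges 667 nm fluorescence with signal-to-noise of each printed compound spot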
- conditionDescription: higher = more signal
Output rule met for composite z-score not less than 0.1; output rule not met otherwise.

Record excerpt, results attached:
structureSmiles | category
[N-]=[N+]=NCc1ccccc1C[C@@]1(C(=O)NCCN2CCOCC2)N=C(c2ccc(OCCCO)cc2)O[C@@H]1c1ccccc1 | rule met
CCOC(=O)C1=CC[C@@H](c2ccccc2)N(S(=O)(=O)c2ccc(C)cc2)[C@@H]1C#N | rule met
COCCCNC(=O)[C@@]1(Cc2ccccc2I)c2ccccc2C(=O)N(C2CCCCC2)[C@H]1c1ccc(CO)cc1 | rule not met
COC(=O)[C@@]1(Cc2ccc(F)cc2)[C@H]2c3cc(C(=O)N(C)C)n(Cc4ccsc4Br)c3C[C@H]2CN1C(=O)c1ccccc1 | rule met
CC(=O)NCCCC[C@@H]1NC(=O)[C@H]2C[C@@H](C(=O)O)[C@@H](c3cccc(OCCO)c3)N2C1=O | rule met
Cc1ccc(S(=O)(=O)N2[C@@H](c3ccccc3)C(C(=O)O)=C[C@H]2C(C)(C)C)cc1 | rule met
CC[C@@H]1C=C(C(=O)O)[C@H](c2cccc(Cl)c2)N1S(=O)(=O)c1ccc(C)cc1 | rule met
CCCNC(=O)[C@@]1(Sc2ccc(C)cc2)CC(=O)N(Cc2cc(C(F)(F)F)cc(C(F)(F)F)c2)[C@@H]1c1ccc(CO)cc1 | rule not met

Next:
Req: Given the entry CC(C)(C)OC(=O)N1[C@@H](C=C(Br)Br)COC1(C)C , answer whether its composite z-score meets or surpasses 0.1.
Resp: rule met

----------
- system: Alpha-bungarotoxin (Bungarus multicinctus)
- measurementNotes: alpha-bungarotoxin binders on microarray, profiling panel, artefact control for SMM control protein annotation, biochemical, small-molecule microarray, Alexa647 label, 635/667 nm fluorescence (AID 1117)
- conditionDescription: alpha-BTX-A647 binding fluorescence, higher = more signal
Give measured composite z-score for each item. Keep answers brief.
Numbers only.

Reference set (3 entries):
compound | experimentalResult
C=C(C(=O)CC[C@@H](OC(=O)c1cccnc1)c1cccc(OCCO)c1)C(C)C | 0.316
O=C1O[C@H](c2ccccc2)[C@H](c2ccccc2)N2[C@H]1[C@@H](C(=O)O)[C@]1(C(=O)Nc3ccccc31)[C@H]2c1ccc(OCCO)cc1 | 0.968
CN1C(=O)C2C(C1=O)C1C=C(CCCO)C2C(C2CC2)N1C (centres undefined) | -0.685

Shifting focus to the compound that follows.
Req: Supply composite z-score measured with Alpha-bungarotoxin (Bungarus multicinctus) for CC(C)c1ccc(NN2C(C(O)C3CCCCC3)C=CC3C(=O)N(c4ccccc4)C(=O)C32)cc1 (centres undefined) .
Resp: 1.9

----------
- system: Dickkopf-related protein 1 (Homo sapiens)
- measurementNotes: DKK1 binders on small-molecule microarrays, primary screen, biochemical, small-molecule microarray, 635 nm fluorescence scan (AID 1106);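 also: score merges emission near 667 nm with signal to noise over three replicate slides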
- conditionDescription: DKK1 binding, higher = more signal
Please mark t if the recorded composite z-score is equal to or greater than -0.4, and f if it falls below.

Example entries begin here.
molecule | category
O=C1c2ccccc2[C@](Cc2ccccc2I)(C(=O)NCCN2CCOCC2)[C@H](c2ccc(CO)cc2)N1Cc1ccccc1C(F)(F)F | f
CC(C)N1C(=O)[C@@]2(Cc3ccccc31)c1ccccc1C(=O)N(Cc1ccccc1)[C@H]2c1ccc(CO)cc1 | t
NCCCCCCNC(=O)[C@@H]1C[C@@H]2C(=O)NCC(=O)N2[C@@H]1c1cccc(OCCO)c1 | t
CCCCCCCCCCC(O)C1C=CC2C(=O)N(C)C(=O)C2N1Nc1ccccc1 (configuration not stated) | f
CCOC(=O)C[C@H]1[C@H](OC(=O)c2ccc(-c3ccccc3)cc2)[C@@H](NC(=O)c2ccc(-c3ccccc3)cc2)c2cc(OCCCO)ccc2N1C(=O)c1ccccc1 | t

Req: Textbook exercise: given the entry Cc1c(NC(=O)/C(C#N)=C/C=C/c2ccc([N+](=O)[O-])cc2)c(=O)n(-c2ccccc2)n1C , state whether its composite z-score is greater than or equal to -0.4.
Resp: t

Req: Has C=CCNC(=O)[C@@H]1[C@H]2C(=O)O[C@H](c3ccccc3)[C@H](c3ccccc3)N2[C@H](c2ccc(OCCO)cc2)[C@@]12C(=O)Nc1ccc(C#CCNC(N)=O)cc12 a recorded composite z-score greater than or equal to -0.4?
Resp: f

----------
Could you please report measured z-score for the items listed next?
- measurementNotes: PSAC antagonists in infected red cells, primary screen, cell-based, P. falciparum Indochina, OD700, 1 h (AID 1154)
- conditionDescription: P. falciparum Indochina infected RBC osmotic lysis, higher = more signal, called active from +8 up or from −8 down
One number for each entry.

Example results:
molecule | z-score
CCOC(=O)C[C@H]1[C@H](OC(=O)c2cc3ccccc3oc2=O)[C@@H](NC(=O)Cc2ccc(OC)cc2)c2cc(OCCCO)ccc2N1C(=O)Cc1ccc(OC)cc1 | 6.34
C=CC[C@]1(C(N)=O)N=C(c2ccc(OCCCO)cc2)O[C@H]1c1ccccc1N=[N+]=[N-] | 33.4
O=C1O[C@H](c2ccccc2)[C@H](c2ccccc2)N2[C@H]1[C@@H](C(=O)Nc1nc3ccccc3s1)[C@]1(C(=O)Nc3ccccc31)[C@H]2c1ccccc1OCCO | 7.3
COC(=O)c1ccc(OC)c(/C=C\CC(OC(=O)c2ccncc2)c2ccccc2)c1 (configuration not stated) | 20.4
O=C(c1ccccc1)N1Cc2ccccc2C[C@@]2(N=C(c3ccc(OCCCO)cc3)O[C@H]2c2ccccc2)C1=O | 6.6
COc1ccc(CCNC(=O)[C@@H]2c3ccccc3C(=O)N(Cc3cc(F)cc(C(F)(F)F)c3)[C@H]2c2ccc(CO)cc2)cc1 | 3.5

Field: next molecule
Req: Find the measured z-score of COC(=O)[C@@]1(Cc2ccc(F)cc2)[C@H]2c3cc(C(=O)N4CCCC4)n(Cc4ccc(OC(F)(F)F)cc4)c3C[C@H]2CN1C(=O)c1ccccc1 and report it.
Resp: 0.498

The reported measurements were obtained from PubChem BioAssay.
